- target: LmxCLK1 (Leishmania mexicana, UniProt E9AMP2)
- Sequence (E9AMP2 1-422): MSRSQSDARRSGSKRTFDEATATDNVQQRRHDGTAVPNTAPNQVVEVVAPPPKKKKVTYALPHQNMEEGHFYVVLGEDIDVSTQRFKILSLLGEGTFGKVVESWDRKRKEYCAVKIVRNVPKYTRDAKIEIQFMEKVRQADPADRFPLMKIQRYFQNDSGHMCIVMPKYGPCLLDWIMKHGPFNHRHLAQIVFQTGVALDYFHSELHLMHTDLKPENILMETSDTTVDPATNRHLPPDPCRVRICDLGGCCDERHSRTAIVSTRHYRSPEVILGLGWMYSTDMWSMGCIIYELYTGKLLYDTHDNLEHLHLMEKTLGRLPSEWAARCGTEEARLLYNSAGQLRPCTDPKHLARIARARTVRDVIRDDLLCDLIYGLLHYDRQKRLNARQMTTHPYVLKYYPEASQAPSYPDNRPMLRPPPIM
- assay.remarks: biochemical
- Format: binding
- experimental.context: DSF, 10 µM compound, 2 µM LmxCLK1, Run 2; read-out: ΔTm Run 2
reported.property: ΔTm at 10 µM (°C)
Answers are plain numbers, in °C.

{"compound": "Cn1cc(-c2[nH]c3cc(NC(=O)[C@H](N)C4CCCCC4)cc4c3c2C=NNC4=O)cn1 [PF-477736]", "target": "LmxCLK1 (Leishmania mexicana, UniProt E9AMP2)", "obs.value": 1.2}

Lab note: each compound below needs its ΔTm at 10 µM filled in.
1. Cc1nc(N)sc1-c1ccnc(Nc2ccc(N3CCOCC3)cc2)n1 [CYC116]
2. COCCNCc1ccc(-c2cc3nccc(Oc4ccc(NC(=S)NC(=O)Cc5ccc(F)cc5)cc4F)c3s2)nc1 [MGCD-265]
3. C=CC(=O)Nc1cccc(Nc2nc(Nc3ccc(OCCOC)cc3)ncc2F)c1 [AVL-292]
4. CCS(=O)(=O)Nc1ccc2c(c1)/C(=C(/Nc1ccc(CN3CCCCC3)cc1)c1ccccc1)C(=O)N2 [Hesperadin]
5. Nc1nccc(Oc2ccc(NC(=O)c3c[nH]cc(-c4ccc(F)cc4)c3=O)cc2F)c1Cl [BMS-794833]
6. C=CCc1ccc(O)c(-c2ccc(O)c(CC=C)c2)c1 [Honokiol]
7. CN(C)CCOc1ccc(-c2nc(-c3ccncc3)c(-c3ccc4c(c3)CC/C4=N\O)[nH]2)cc1 [SB590885]

Response:
1. -0.1
2. -0.1
3. -0.2
4. 1.3
5. -0.4
6. 0.2
7. -0.4
